tested on: Escherichia coli; assay: Antimicrobial activity against Escherichia coli TOP10 by Etest method; format: functional
READOUT NAME: MIC (µg/mL)
Use µg/mL as the unit, but write only the number.

Solved entries:
C[C@@H](O)[C@H]1C(=O)N2C(C(=O)O)=C(SCCNC=N)C[C@H]12 [IMIPENEM ANHYDROUS]	0.19
CCN[C@@H]1C[C@H](N)[C@@H](O[C@H]2OC(CN)=CC[C@H]2N)[C@H](O)[C@H]1O[C@H]1OC[C@](C)(O)[C@H](NC)[C@H]1O	0.25

MIC recorded for this molecule, CO/N=C(\C(=O)N[C@@H]1C(=O)N2C(C(=O)O)=C(COC(C)=O)CS[C@H]12)c1csc(N)n1 , is 0.047
